study_system: T1, Ssa1 (yeast (S. cerevisiae), UniProt P10591 1-642)
T1 construct: Ssa1, yeast cytosolic Hsp70; non-tagged; also called Hsp70; source: E. coli Rosetta 2(DE3), purified as described [51]
T1 sequence (P10591 whole entry): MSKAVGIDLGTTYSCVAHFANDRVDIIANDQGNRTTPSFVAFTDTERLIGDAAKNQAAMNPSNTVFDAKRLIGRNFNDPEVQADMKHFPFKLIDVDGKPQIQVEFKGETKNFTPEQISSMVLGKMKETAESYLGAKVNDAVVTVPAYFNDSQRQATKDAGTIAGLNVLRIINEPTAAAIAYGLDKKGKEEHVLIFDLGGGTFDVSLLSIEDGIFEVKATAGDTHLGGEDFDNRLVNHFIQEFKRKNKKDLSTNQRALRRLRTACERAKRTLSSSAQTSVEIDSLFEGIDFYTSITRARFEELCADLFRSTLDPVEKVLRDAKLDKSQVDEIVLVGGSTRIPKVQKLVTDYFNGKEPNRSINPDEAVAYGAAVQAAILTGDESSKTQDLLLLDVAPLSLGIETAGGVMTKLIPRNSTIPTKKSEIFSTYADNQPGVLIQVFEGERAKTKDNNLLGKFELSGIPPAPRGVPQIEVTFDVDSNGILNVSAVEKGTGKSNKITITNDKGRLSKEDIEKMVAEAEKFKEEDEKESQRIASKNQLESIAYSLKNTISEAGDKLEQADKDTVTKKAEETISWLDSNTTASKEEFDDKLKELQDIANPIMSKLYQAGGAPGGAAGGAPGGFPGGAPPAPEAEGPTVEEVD
experimental_details: pull-down; His6-Fbp1 (wild type or mutant) pulled down on Talon metal affinity resin; reactions with two or all three proteins; 6 μg each of His6-Fbp1 (1.6 μM), Hsp70 (0.9 μM) and GST-Fes1 (1.09 μM), with or without ATP, ADP or AMP (2.5 mM); 50 mM Tris-HCl pH 7.5, 150 mM NaCl, 2% glycerol, 5 mM MgCl2; 30 min at 4°C; washed with 5 mM imidazole, eluted with 250 mM imidazole; stained SDS-PAGE gels, bands quantified …
setup_conditions: both partners purified
test_readout: binding result

binder	test_readout	measurement
His6-Fbp1 (enzyme, yeast (S. cerevisiae), UniProt P09201 1-348, looked up, Fbp1, yeast gluconeogenic enzyme; the initiator methionine is present in the purified protein and is counted as residue 1; also called wild type His6-Fbp1; not shown: His6, N-terminal, kept) MPTLVNGPRRDSTEGFDTDIITLPRFIIEHQKQFKNATGDFTLVLNALQFAFKFVSHTIRRAELVNLVGLAGASNFTGDQQKKLDVLGDEIFINAMRASGIIKVLVSEEQEDLIVFPTNTGSYAVCCDPIDGSSNLDAGVSVGTIASIFRLLPDSSGTINDVLRCGKEMVAACYAMYGSSTHLVLTLGDGVDGFTLDTNLGEFILTHPNLRIPPQKAIYSINEGNTLYWNETIRTFIEKVKQPQADNNNKPFSARYVGSMVADVHRTFLYGGLFAYPCDKKSPNGKLRLLYEAFPMAFLMEQAGGKAVNDRGERILDLVPSHIHDKSSIWLGSSGEIDKFLDHIGKSQ	binding result	binds
